- tgt: Luciferin 4-monooxygenase (Photinus pyralis)
- run description: qHTS assay to identify small molecule inhibitors of firefly luciferase (AID 1224835); further: nearly all actives have a fitted effect of over 25% in size
- assay conditions: purified P. pyralis luciferase, luminescence inhibition; series mostly up to 115 µM
Records with an inconclusive call do not appear. Calls of active or inactive are those of the source. The call rests on the fitted dose curve; in most records, active means well fitted inhibition curve with a large enough effect in the repeat runs; inconclusive means weak or mixed curves; inactive means flat fitted curve, though single readings scatter.
# valid calls are yes for active, no for inactive; nothing else

Problem: Test call for this molecule, please: "COCCCC/C(=N\OCCN)c1ccc(C(F)(F)F)cc1"
Result: no

Problem: Now consider "ON=C1CCCC1" .
Result: no

Problem: Also "CCCCCCCCCCCCCCCC[N+](C)(C)CCN(Cc1ccc(OC)cc1)c1ncccn1" , if possible.
Result: no

Problem: Thanks! And "Cc1ccc2oc(CN(Cc3ccccc3)C(=O)Nc3c(F)cc(F)cc3F)c(-c3ccc(Cl)cc3)c2c1" ?
Result: no

Problem: Next molecule up: "Fc1ccc(C(c2ccc(F)cc2)N2CCN(C/C=C/c3ccccc3)CC2)cc1"
Result: no

Problem: Can you check "O=C(NO)C1(NS(=O)(=O)c2ccc(Oc3ccc(F)cc3)cc2)CCOCC1" next?
Result: no

Problem: Also check "C=CC(=O)OCC(CO)(COCC(COC(=O)C=C)(COC(=O)C=C)COC(=O)C=C)COC(=O)C=C"
Result: no

Problem: Please answer likewise for "Clc1ccc2cc3ccccc3cc2c1"
Result: no

Problem: Next record, please: CC1=C(C(=O)OC(C)C)C(c2cccc([N+](=O)[O-])c2)C(C(=O)OC2CN(C(c3ccccc3)c3ccccc3)C2)=C(N)N1 (stereo not given)
Result: no

Problem: Proceed to "O=c1[nH]sc2cc(Cl)ccc12"
Result: yes

---

- run description: Caspase-3/7 induction in HepG2 cells by small molecules, qHTS cell viability counter screen (AID 1346981); further: nearly all actives have a fitted effect of over 30% in size
- assay conditions: CellTiter-Fluor fluorescence, 17 h; series mostly up to 92.4 µM
Results filed as inconclusive are left out. The source made the active and inactive calls. Calls follow the shape of the dose curve; as a rule, active = well fitted cell-killing curve with a large enough effect in the repeat runs; inconclusive = weak or mixed curves, or effect the other way; inactive = flat fitted curve, though single readings scatter.
API: response.call in true (1) (active), false (0) (inactive)

Problem: // outcome(item) with item = Cc1cccc(N(C)C(=S)Oc2ccc3c(c2)C2CCC3C2)c1 (centres undefined)
Result: false (0)

Problem: Queued: "CCCCN(CCCC)C(=O)N(CCCC)CCCC"
Result: false (0)

Problem: For "COCCCC/C(=N\OCCN)c1ccc(C(F)(F)F)cc1" then?
Result: false (0)

Problem: Consider next the molecule "CS(=O)(=O)CCNCc1ccc(-c2ccc3ncnc(Nc4ccc(OCc5cccc(F)c5)c(Cl)c4)c3c2)o1" in the same way.
Result: true (1)

Problem: And for CC1=C(C(=O)OC(C)C)C(c2cccc([N+](=O)[O-])c2)C(C(=O)OC2CN(C(c3ccccc3)c3ccccc3)C2)=C(N)N1 (centres undefined) ?
Result: true (1)

Problem: Queued: "COc1cc(-c2ccc(N=C=O)c(OC)c2)ccc1N=C=O"
Result: false (0)

Problem: Lookup "CC(C)(C)CC(C)(C)c1ccc(OCCOCC[N+](C)(C)Cc2ccccc2)cc1"
Result: true (1)

Problem: Please do the same for "O=C1Cc2cc(CCN3CCN(c4nsc5ccccc45)CC3)c(Cl)cc2N1" as well.
Result: false (0)

Problem: Record: "COc1cccc(N)c1"
Result: false (0)

---

- run description: qHTS RealTime-Glo MT Cell Viability Assay in HepG2 cells - 24 hour (AID 1224867); further: nearly all actives have a fitted effect of over 50% in size
- assay conditions: RealTime-Glo luminescence; series mostly up to 76.8 µM
Inconclusive results are not listed. Active and inactive are the calls of the source. Calls follow the shape of the dose curve; as a rule, active = well fitted cell-killing curve with a large enough effect in the repeat runs; inconclusive = weak or mixed curves; inactive = flat fitted curve, though single readings scatter.
In this exercise, the only acceptable responses are Yes = active, No = inactive

Problem: Dear colleague, could you share the recorded outcome for "N#CC1(c2ccc(F)cc2)CCC(=O)CC1" when you have a moment?
Result: No

Problem: Next entry: "COc1cccc(N)c1"
Result: No

Problem: Would you mind doing "Oc1ccc(N=Nc2ccccc2)cc1" as well?
Result: No

Problem: Ok, now "NC(=O)C1(N2CCCCC2)CCN(CCCN2c3ccccc3CCc3ccc(Cl)cc32)CC1"
Result: Yes

Problem: Please give the result for "CCCCN1CCCC[C@H]1C(=O)Nc1c(C)cccc1C" too.
Result: No

Problem: Can you handle "Cc1ccc(-n2nc(C(C)(C)C)cc2NC(=O)Nc2ccc(OCCN3CCOCC3)c3ccccc23)cc1" next?
Result: No

Problem: Now give it for "Cn1cc(C(=O)[C@@H]2CCc3nc[nH]c3C2)c2ccccc21" too.
Result: No

Problem: Again, but for "NNc1nc(-c2ccccc2)cs1"
Result: No

Problem: Try "CCCCCCOC(=O)c1ccc(O)cc1" next.
Result: No

Problem: Next record, please: "CCCCN1C(=O)[C@@H]([C@H](O)C2CCCCC2)NC(=O)C12CCN(Cc1ccc(Oc3ccc(C(=O)O)cc3)cc1)CC2"
Result: No

Problem: What about this compound? CCCC1O[C@@H]2C[C@H]3[C@@H]4CCC5=CC(=O)C=C[C@]5(C)[C@H]4[C@@H](O)C[C@]3(C)[C@]2(C(=O)CO)O1 (stereo partly drawn)
Result: No

Problem: Continue with "O=C1c2ccccc2Cc2ccccc21"
Result: No

Problem: Do the same for "O=[N+]([O-])c1ccccc1Nc1ccccc1" please
Result: No

Problem: Please do the same for "O=C(NO)C1(NS(=O)(=O)c2ccc(Oc3ccc(F)cc3)cc2)CCOCC1" as well.
Result: No

Problem: Do the same for "O=S1(=O)CC(Cl)(Cl)C(Cl)(Cl)C1" please
Result: Yes

Problem: Do the same for "Cc1cccc(S(=O)(=O)O)c1C" please
Result: No

Problem: Next record, please: "CSc1cnc(C)cn1"
Result: No

Problem: Now the compound "Nc1ccc2cc(S(=O)(=O)O)cc(O)c2c1N=Nc1ccccc1C(F)(F)F"
Result: No

Problem: How about "c1ccc(CSCc2ccccc2)cc1" ?
Result: No

Problem: Record: CCCCCCCCCCCCCC[P+](CCCC)(CCCC)CCCC (tested in a mixture with another compound)
Result: Yes

Problem: Repeat for the following compound: "Clc1ccc2nsnc2c1NC1=NCCN1"
Result: No

Problem: Next up: "C=CC(=O)OCCn1c(=O)n(CCOC(=O)C=C)c(=O)n(CCOC(=O)C=C)c1=O"
Result: Yes

Problem: Field entry: "Nc1ccc2c3c(cccc13)-c1ccccc1-2"
Result: No

Problem: Now consider "C=C(C)C(=O)OCC[N+](C)(C)C" and answer again.
Result: No

Problem: Moving on to the next compound: "Nc1ccccc1O"
Result: No

Problem: Next: "CC(C)c1ccc2c(c1)CC[C@H]1[C@](C)(CN)CCC[C@]21C"
Result: Yes

Problem: // query: "N=C1C=CC(=C(c2ccc(N)cc2)c2ccc(N)cc2)C=C1"
Result: Yes

Problem: Can you check "CCC(CN)=C(c1ccccc1)c1ccccc1" next?
Result: No

Problem: Now consider "Oc1cccc2cc3cccc(O)c3c(O)c12" .
Result: No

Problem: What about this compound? CC(C)(C)C(=O)OCOC(=O)C1N2C(=O)CC2S(=O)(=O)C1(C)C (stereo not drawn)
Result: No

Problem: What do we get for "CCCCCCCCCCCCCCCS(=O)(=O)Oc1ccccc1" ?
Result: No

Problem: Cool, now "CC1=C(/C=C/C(C)=C/C=C/C(C)=C/C=O)C(C)(C)CCC1"
Result: Yes

Problem: Try this compound too: CC1=C(C(=O)OC(C)C)C(c2cccc([N+](=O)[O-])c2)C(C(=O)OC2CN(C(c3ccccc3)c3ccccc3)C2)=C(N)N1 (stereo not drawn)
Result: Yes

Problem: What would you report for "Cc1cc(CCN2CCN(c3nsc4ccccc34)CC2)cc2c1NC(=O)CC2(C)C" ?
Result: Yes

Problem: Next: "Oc1ccc2c(c1)-c1ccccc1C2"
Result: No

Problem: Same thing, different compound: "On1ccccc1=S"
Result: Yes

Problem: Would you mind doing "CCOC(=O)/C=C(C)/C=C/C=C(C)/C=C/c1c(C)cc(OC)c(C)c1C" as well?
Result: No

Problem: Would you mind doing CCC1OCC(COc2ccc(Oc3ccccc3)cc2)O1 (stereo not drawn) as well?
Result: No

Problem: Let us now turn to "CC(C)(C)NC(=O)[C@@H]1C[C@@H]2CCCC[C@@H]2CN1C[C@@H](O)[C@H](Cc1ccccc1)NC(=O)[C@H](CC(N)=O)NC(=O)c1ccc2ccccc2n1"
Result: Yes

Problem: Follow-up item: "[O-][n+]1ccccc1SSc1cccc[n+]1[O-]"
Result: Yes

Problem: Can you handle "O=c1cccccc1O" next?
Result: No

Problem: Another compound to check: "CCCCCCCCCCCC(=O)NCCCN(C)C"
Result: Yes

Problem: Let us now turn to CCCCC(CC)CN=C(N)NC(N)=NCCCCCCN=C(N)NC(N)=NCC(CC)CCCC (stereo not drawn)
Result: Yes

Problem: Now the same for "CCCCCCCC[N+](CCCCCCCC)(CCCCCCCC)CCCCCCCC"
Result: Yes

Problem: Next up: "Cc1cc(N)c(S(=O)(=O)O)cc1Cl"
Result: No

Problem: Repeat with "CC[C@H](c1ccc(O)cc1)[C@@H](CC)c1ccc(O)cc1"
Result: No

Problem: # iterate: "Cc1cc(O)c2ccccc2c1O"
Result: Yes

Problem: Field entry: "CCCCCCCCCCn1cc[n+](CCCCCCCCCC)c1C"
Result: Yes
